measured_target: h-EP2 (Homo sapiens, UniProt P43116)
Sequence (P43116 whole entry): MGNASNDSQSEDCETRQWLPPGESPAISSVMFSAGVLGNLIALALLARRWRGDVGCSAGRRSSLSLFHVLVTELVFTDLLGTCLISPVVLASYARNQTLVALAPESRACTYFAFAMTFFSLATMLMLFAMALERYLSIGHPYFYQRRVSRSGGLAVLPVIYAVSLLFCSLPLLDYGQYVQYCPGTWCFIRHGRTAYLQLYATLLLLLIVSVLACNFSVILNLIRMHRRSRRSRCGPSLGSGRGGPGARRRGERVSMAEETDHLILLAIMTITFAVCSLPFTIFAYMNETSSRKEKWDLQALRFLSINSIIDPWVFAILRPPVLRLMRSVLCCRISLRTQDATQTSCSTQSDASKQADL
protocol_notes: Prostaglandin EP2 receptor binding assay (3H-PGE2 SPA)
test_conditions: Table 1; read-out: h-EP2 Ki
observed_property: pKi
Formally, pKi is defined as -log10 of the concentration c, with c in mol/L.

Sample answers from the record:
[[record]]
compound = "O=C(O)c1ccc(CCN2C(=O)CC[C@@H]2/C=C/[C@H](O)C2(c3ccccc3)CC2)cc1 [Example 8]"
observed_property = "pKi"
experimental_value = 5.71

[[record]]
compound = "CCCCC(C)(C)C(O)/C=C/[C@H]1CCC(=O)N1CCc1ccc(C(=O)O)cc1 (stereo in doubt) [Example 5]"
observed_property = "pKi"
experimental_value = 5.91

[[record]]
compound = "CCCCC[C@H](O)/C=C/[C@H]1CCC(=O)N1CCc1ccc(C(=O)O)cc1 [Example 1]"
observed_property = "pKi"
experimental_value = 6.92

[[record]]
compound = "CCCCC(C)(C)C(O)/C=C/[C@H]1CCC(=O)N1CCc1ccc(C(=O)O)cc1 (stereo in doubt) [Example 6]"
observed_property = "pKi"
experimental_value = 5.68


Please look at the following compound next.
**Query** Give pKi for O=C(O)c1ccc(CCN2C(=O)CC[C@@H]2/C=C/[C@@H](O)C2(c3ccccc3)CC2)cc1 [Example 7]
**Result** 6.66

---

measured_target: h-EP4 (Homo sapiens)
Sequence (P35408 whole entry): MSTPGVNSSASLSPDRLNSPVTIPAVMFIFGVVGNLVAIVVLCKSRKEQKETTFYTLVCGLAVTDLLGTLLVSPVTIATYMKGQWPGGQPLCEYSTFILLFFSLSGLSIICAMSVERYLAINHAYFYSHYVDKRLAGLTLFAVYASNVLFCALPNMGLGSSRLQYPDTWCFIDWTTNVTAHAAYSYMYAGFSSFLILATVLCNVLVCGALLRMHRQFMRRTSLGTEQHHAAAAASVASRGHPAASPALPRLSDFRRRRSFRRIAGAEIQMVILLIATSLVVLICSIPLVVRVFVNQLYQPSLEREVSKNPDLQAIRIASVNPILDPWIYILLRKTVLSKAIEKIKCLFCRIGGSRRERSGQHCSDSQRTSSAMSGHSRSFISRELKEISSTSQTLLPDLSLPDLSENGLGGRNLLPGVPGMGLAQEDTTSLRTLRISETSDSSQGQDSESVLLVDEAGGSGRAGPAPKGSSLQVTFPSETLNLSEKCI
protocol_notes: EP4 receptor binding assay (3H-PGE2 SPA)
test_conditions: read-out: Ki measured as described in Example 83 (EP4)
observed_property: Ki

[[record]]
molecule = "O=C(O)c1ccc(CCN2C(=O)CCN2CCC(O)Cc2cccc(C(F)(F)F)c2)cc1 (centres unmarked) [reference compound]"
measured_target = "h-EP4 (Homo sapiens)"
experimental_value = "23 nM"


Please look at the following molecule next.
**Query** Give Ki for O=C(O)c1ccc(CCN2C(=O)CCN2CCC(O)Cc2cccc(I)c2)cc1 (centres unmarked) [reference compound]
**Result** 14 nM

---

measured_target: h-EP4 (Homo sapiens)
protocol_notes: EP4 receptor binding assay (3H-PGE2 SPA)
test_conditions: Table 2; read-out: h-EP4 Ki
Here, each record is paired with measured Ki data.

[[record]]
compound = "CCCCC1([C@H](O)/C=C/[C@H]2CCC(=O)N2CCc2ccc(C(=O)O)cc2)CCC1 [Example 45]"
experimental_value = "2 nM"

[[record]]
compound = "CCCC1([C@H](O)C/C=C/[C@H]2[C@H](O)CC(=O)[C@@H]2CCCCCCC(=O)OC)CCC1 [Butaprost, reference compound]"
experimental_value = "> 10000 nM"

[[record]]
compound = "CS(=O)(=O)NC(=O)CCC/C=C\\C[C@H]1C(=O)C[C@@H](O)[C@@H]1/C=C/[C@@H](O)COc1ccccc1 [Sulprostone, reference compound]"
experimental_value = "7740 nM"

[[record]]
compound = "O=C(O)c1ccc(CCN2C(=O)CC[C@@H]2/C=C/[C@@H](O)C2(c3ccccc3)CC2)cc1 [Example 7]"
experimental_value = "2 nM"

[[record]]
compound = "CCCCCC[C@H](O)/C=C/[C@H]1CCC(=O)N1CCc1ccc(C(=O)O)cc1 [Example 10]"
experimental_value = "1 nM"

[[record]]
compound = "O=C(O)c1ccc(CCN2C(=O)CC[C@@H]2/C=C/[C@@H](O)Cc2ccccc2)cc1 [Example 31]"
experimental_value = "0.05 nM"


Please look at the following compound next.
**Query** Give Ki for O=C(O)c1ccc(CCN2C(=O)CC[C@@H]2/C=C/[C@@H](O)Cc2cccc(Cl)c2)cc1 [Example 9]
**Result** 0.5 nM

Data provenance is patent US7419999B2.
